System Name: HLA-A*26:01
Protocol Text: IEDB peptide-MHC binding, purified MHC/competitive/radioactivity; filed as Kd, often an IC50 or EC50 that approximates it; bounds were set here for any values at or beyond the usual limits of such assays
Test Conditions: source organism: Dengue virus 3 Martinique/1243/1999
Reported Property: pKd
Entry type: numeric. Quantity: pKd, the -log10 of concentration in molar units.

CIAIGIITLY | 6.92
EALKGLPIRY | 5.00

-- ask Hello, I am looking for reported pKd with HLA-A*26:01 for HVTRGAVLTY . Could you help?
-- reply 6.94

---

System Name: HLA-B*51:01
Protocol Text: IEDB peptide-MHC binding, purified MHC/competitive/fluorescence; filed as Kd, often an IC50 or EC50 that approximates it; bounds were set here for any values at or beyond the usual limits of such assays
Test Conditions: source organism: Escherichia coli 536
Reported Property: Kd (µM)
Respond numerically; units are µM and should not be typed.

-- ask # get_value(readout='Kd', item= SPLHVFVAV )
-- reply 3.66

---

System Name: HLA-B*07:02
Protocol Text: IEDB peptide-MHC binding, purified MHC/direct/fluorescence; filed as Kd, often an IC50 or EC50 that approximates it; bounds were set here for any values at or beyond the usual limits of such assays
Test Conditions: source organism: Shigella flexneri
Reported Property: Kd

-- ask # get_value(readout='Kd', item= DRLHPPNKL )
-- reply ≥ 20 µM

---

System Name: HLA-A*30:01
Protocol Text: IEDB peptide-MHC binding, purified MHC/competitive/radioactivity; filed as Kd, often an IC50 or EC50 that approximates it; bounds were set here for any values at or beyond the usual limits of such assays
Test Conditions: source organism: Mammarenavirus lassaense
pKd: −log10 of the molar value.
Reported Property: pKd

-- ask Hello, I am looking for reported pKd with HLA-A*30:01 for LIDGRTSFY . Could you help?
-- reply ≤ 4.29

---

System Name: HLA-A*24:03
Protocol Text: IEDB peptide-MHC binding, purified MHC/competitive/fluorescence; filed as Kd, often an IC50 or EC50 that approximates it; bounds were set here for any values at or beyond the usual limits of such assays
Test Conditions: source organism: Yersinia mollaretii ATCC 43969
Reported Property: Kd

-- ask # get_value(readout='Kd', item= MMWIPGWFG )
-- reply ≥ 20 µM

---

System Name: HLA-B*08:03
Protocol Text: IEDB peptide-MHC binding, purified MHC/direct/fluorescence; filed as Kd, often an IC50 or EC50 that approximates it; bounds were set here for any values at or beyond the usual limits of such assays
Test Conditions: source organism: Ravn virus - Ravn, Kenya, 1987
pKd: −log10 of the molar value.
Reported Property: pKd

-- ask # get_value(readout='pKd', item= AEALLADGL )
-- reply ≤ 4.70

---

System Name: HLA-A*02:11
Protocol Text: IEDB peptide-MHC binding, purified MHC/direct/fluorescence; filed as Kd, often an IC50 or EC50 that approximates it; bounds were set here for any values at or beyond the usual limits of such assays
Test Conditions: source organism: Giardia lamblia ATCC 50803
Reported Property: Kd (nM)
Respond numerically; units are nM and should not be typed.

-- ask # get_value(readout='Kd', item= LPVFATIGL )
-- reply 146

---

System Name: HLA-B*83:01
Protocol Text: IEDB peptide-MHC binding, purified MHC/competitive/fluorescence; filed as Kd, often an IC50 or EC50 that approximates it; bounds were set here for any values at or beyond the usual limits of such assays
Test Conditions: source organism: Zaire ebolavirus
Reported Property: Kd

-- ask # get_value(readout='Kd', item= TTIGEWAFW )
-- reply ≥ 5 µM
